// provenance: patent US8207167B2

# Run description: In vivo pharmacokinetics in rat, oral and intravenous
# Design: species or system Sprague-Dawley rats
# Assay context: male, Sprague-Dawley, plasma, oral, 2.5 mg/kg, F=AUC(p.o.)/AUC(i.v.)
Property: bioavailability (%)
Field: numeric (%). Do not append units.

For O=S(=O)(Nc1cccc(CO)c1)c1ccc(-c2ccc(Cl)cc2Cl)cc1 [ABD455, reference compound] the compound record lists bioavailability as 3

====

# Run description: In vivo pharmacokinetics in rat, oral and intravenous
# Design: species or system Sprague-Dawley rats
# Assay context: male, Sprague-Dawley, plasma, oral, 1 mg/kg, read-out: Bioavailability F %
Property: bioavailability (%)
Field: numeric (%). Do not append units.

For CNC(CO)c1cccc(NS(=O)(=O)c2ccc(-c3ccc(F)cc3F)cc2)c1 (stereo not shown) [ABD789] the molecule record lists bioavailability as 38

====

# Run description: In vivo pharmacokinetics in rat, oral and intravenous
# Set-up: species or system Sprague-Dawley rats
# Assay context: male, Sprague-Dawley, plasma, po, 2.5 mg/kg, p.o., 2.5 mg/kg, read-out: T½ (converted)
Property: half-life (min)
Field: numeric (min). Do not append units.

For O=S(=O)(Nc1cccc(CO)c1)c1ccc(-c2ccc(Cl)cc2Cl)cc1 [ABD455, reference compound] the compound record lists half-life as 48

====

# Run description: Thermodynamic aqueous solubility in fasted state simulated intestinal fluid (FaSSIF)
# Type: physicochemical
# Assay context: 25° C., 24 hours equilibration, HPLC
Property: Solubility (µg/mL)
Field: numeric (µg/mL). Do not append units.

For O=S(=O)(Nc1ccc(CO)c(CO)c1)c1ccc(-c2ccc(F)cc2F)cc1 [ABD565, reference compound] the molecule record lists Solubility as 30

For Cc1c(CO)cccc1NS(=O)(=O)c1ccc(-c2ccc(F)cc2F)cc1 [ABD527, reference compound] the molecule record lists Solubility as 40

For O=S(=O)(Nc1cc(CO)ccc1O)c1ccc(-c2ccc(F)cc2F)cc1 [ABD585, reference compound] the molecule record lists Solubility as 70

For O=S(=O)(Nc1cccc(CO)c1)c1ccc(-c2ccc(Cl)cc2F)cc1 [ABD575, reference compound] the molecule record lists Solubility as 70

For O=S(=O)(Nc1cccc(CCO)c1)c1ccc(-c2ccc(Br)cc2)cc1 [ABD630, reference compound] the molecule record lists Solubility as 60

====

# Run description: Human liver microsomal stability assay
# Assay type: in vitro ADME
# Assay context: pooled human liver microsomes 0.5 mg/mL, test compound 3 μM, 45 minute incubation, NADPH
Property: T1/2

[[record]]
compound = "CNCC(O)c1cccc(NS(=O)(=O)c2ccc(-c3ccc(F)cc3F)cc2)c1 (stereo not drawn) [ABD783]"
property = "T1/2"
endpoint_result = "Stable"

[[record]]
compound = "O=C(O)c1cccc(NS(=O)(=O)c2ccc(-c3ccc(Cl)cc3Cl)cc2)c1 [ABD612, reference compound]"
property = "T1/2"
endpoint_result = "Stable"

[[record]]
compound = "CNC(CO)c1cccc(NS(=O)(=O)c2ccc(-c3ccc(F)cc3F)cc2)c1 (stereo not drawn) [ABD789]"
property = "T1/2"
endpoint_result = "Stable"

